Hey, just so you know, these numbers are from BigSolDB 2.1.

# CONDITION PARAMETERS: in n-pentanol, 313.15 K
Label False if solubility (mole fraction) falls below 0.0004; label True in every other case.

O=C(/C=C/c1cn(-c2ccccc2)nc1-c1ccccc1Cl)c1nc2ccccc2[nH]1    True

Q) For this compound, is measured solubility (mole fraction) 0.0004 or higher? "COc1ccc(-c2nn(-c3ccccc3)cc2/C=C/C(=O)c2nc3ccccc3[nH]2)cc1OC"
A) False

Q) For this compound, is measured solubility (mole fraction) 0.0004 or higher? "O=C(/C=C/c1cn(-c2ccccc2)nc1-c1cccc([N+](=O)[O-])c1)c1nc2ccccc2[nH]1"
A) True

Q) For this compound, is measured solubility (mole fraction) 0.0004 or higher? "O=C(/C=C/c1cn(-c2ccccc2)nc1-c1ccc(Cl)cc1)c1nc2ccccc2[nH]1"
A) False

Q) For this compound, is measured solubility (mole fraction) 0.0004 or higher? "COc1cccc(-c2nn(-c3ccccc3)cc2/C=C/C(=O)c2nc3ccccc3[nH]2)c1"
A) False

Q) For this compound, is measured solubility (mole fraction) 0.0004 or higher? "COc1ccc(-c2nn(-c3ccccc3)cc2/C=C/C(=O)c2nc3ccccc3[nH]2)cc1"
A) True

Q) For this compound, is measured solubility (mole fraction) 0.0004 or higher? "O=C(/C=C/c1cn(-c2ccccc2)nc1-c1ccccc1)c1nc2ccccc2[nH]1"
A) True
